Test system: CFA-induced pain model
Test: Antiallodynic activity on Complete Freund's Adjuvant (CFA)-induced inflammatory pain model (von Frey)
Format: in vivo, Sprague-Dawley rats
Settings: Rattus norvegicus, ip, 0.5 h, 60 mg/kg, 0.5 h, rat, intraperitoneal; read-out: CFA model: effect (%) at the concentration administered
Procedure: Male, Sprague-Dawley rats (200-220 g, Nara Bio, Korea) were habituated for 1 week before surgery and allowed free access to food and water throughout the experimentation. Room temperature and humidity were maintained at 24±2° C. and 50±10%, respectively. […] Tactile sensitivity (Mechanical allodynia) was evaluated using von Frey monofilaments before and after treatment, and animals were used withdrawal threshold value was less than 4 g. […]
Would you kindly list response vs control in vivo at 60 mg/kg for each of these compounds?
Give the value, in units of %, as a plain number.

Consider the compound CC1O[C@@H](COS(N)(=O)=O)[C@H](c2ccccc2Cl)O1 (stereo partly drawn) tested on CFA-induced pain model; state its response vs control in vivo at 60 mg/kg.
22.4

Name the recorded response vs control in vivo at 60 mg/kg of `NS(=O)(=O)OC[C@@H]1OC(=O)O[C@H]1c1ccccc1[N+](=O)[O-]` , assay system CFA-induced pain model.
15.6

Enter recorded response vs control in vivo at 60 mg/kg with CFA-induced pain model for CC1(C)OC(COS(N)(=O)=O)C(c2ccncc2Cl)O1 (stereo not drawn) here.
33.9

Lab note: record response vs control in vivo at 60 mg/kg of CC1(C)OC(COS(N)(=O)=O)C(c2cnccc2Cl)O1 (stereo not drawn) tested on CFA-induced pain model.
24.7

Check CFA-induced pain model data and give response vs control in vivo at 60 mg/kg for CC1(C)OC(COS(N)(=O)=O)C(c2cncnc2)O1 (stereo not drawn) .
44.4

// fetch response vs control in vivo at 60 mg/kg for `CC1(C)O[C@@H](COS(N)(=O)=O)[C@H](c2ccc(Cl)s2)O1` ; system: CFA-induced pain model
35.9

Report measured response vs control in vivo at 60 mg/kg on CFA-induced pain model; entry: `Nc1ccccc1[C@@H]1OC2(CCCCC2)O[C@H]1COS(N)(=O)=O`
37.1

Report its response vs control in vivo at 60 mg/kg with CFA-induced pain model as the test system: `Cc1nc(Cl)sc1[C@@H]1OC(C)(C)O[C@H]1COS(N)(=O)=O`
24.2

Param request: response vs control in vivo at 60 mg/kg | system CFA-induced pain model | item `CC1(C)O[C@@H](COS(N)(=O)=O)[C@H](c2ccsc2)O1`
29.8

###

Tested on: CFA-induced pain model
Test: Antiallodynic activity on Complete Freund's Adjuvant (CFA)-induced inflammatory pain model (von Frey)
Type: in vivo, Sprague-Dawley rats
Details: Rattus norvegicus, ip, 0.5 h, 60 mg/kg, 0.5 h, rat, intraperitoneal; read-out: CFA model: effect (%) at the concentration administered
MEASURED_METRIC: response vs control in vivo at 60 mg/kg (%)
Please reply with the bare figure in % and do not write the unit itself.

Consider the compound `CC1(C)O[C@@H](COS(N)(=O)=O)[C@H](c2ccc(Cl)cc2Cl)O1` . State its measured response vs control in vivo at 60 mg/kg.
22.5

Given the compound CC1(C)OC(COS(N)(=O)=O)C(c2cnc(Cl)nc2)O1 (stereo not drawn) , write its reported response vs control in vivo at 60 mg/kg.
40

Tell me measured response vs control in vivo at 60 mg/kg for `NS(=O)(=O)OC[C@@H]1OC2(CCCC2)O[C@H]1c1ccccc1Cl` please.
20.7

Read off the recorded response vs control in vivo at 60 mg/kg for CC1(C)O[C@H](c2cnc(Cl)s2)[C@@H](COS(N)(=O)=O)O1 (stereo in doubt)
30.4

Specify response vs control in vivo at 60 mg/kg for `Cc1ncsc1[C@@H]1OC(C)(C)O[C@H]1COS(N)(=O)=O` and stop.
77.2

Please give measured response vs control in vivo at 60 mg/kg of the following entry: `CC1(C)O[C@@H](COS(N)(=O)=O)[C@H](c2sc(Cl)nc2Cl)O1`
66.8

Report measured response vs control in vivo at 60 mg/kg; entry is `CC1(C)O[C@H](c2ccccc2Cl)[C@@H](COS(N)(=O)=O)O1`
21.1

For the compound `CC1(C)O[C@@H](COS(N)(=O)=O)[C@H](c2c(Cl)cccc2Cl)O1` , give its measured response vs control in vivo at 60 mg/kg value.
33.3

State its response vs control in vivo at 60 mg/kg: `Cc1ncsc1[C@H]1OC(C)(C)O[C@@H]1COS(N)(=O)=O`
38.6
